Could you please report measured pIC50 for the items listed next?
# SYSTEM_TESTED: Jarid1B (Homo sapiens)
# Sequence (Q9UGL1 2-751): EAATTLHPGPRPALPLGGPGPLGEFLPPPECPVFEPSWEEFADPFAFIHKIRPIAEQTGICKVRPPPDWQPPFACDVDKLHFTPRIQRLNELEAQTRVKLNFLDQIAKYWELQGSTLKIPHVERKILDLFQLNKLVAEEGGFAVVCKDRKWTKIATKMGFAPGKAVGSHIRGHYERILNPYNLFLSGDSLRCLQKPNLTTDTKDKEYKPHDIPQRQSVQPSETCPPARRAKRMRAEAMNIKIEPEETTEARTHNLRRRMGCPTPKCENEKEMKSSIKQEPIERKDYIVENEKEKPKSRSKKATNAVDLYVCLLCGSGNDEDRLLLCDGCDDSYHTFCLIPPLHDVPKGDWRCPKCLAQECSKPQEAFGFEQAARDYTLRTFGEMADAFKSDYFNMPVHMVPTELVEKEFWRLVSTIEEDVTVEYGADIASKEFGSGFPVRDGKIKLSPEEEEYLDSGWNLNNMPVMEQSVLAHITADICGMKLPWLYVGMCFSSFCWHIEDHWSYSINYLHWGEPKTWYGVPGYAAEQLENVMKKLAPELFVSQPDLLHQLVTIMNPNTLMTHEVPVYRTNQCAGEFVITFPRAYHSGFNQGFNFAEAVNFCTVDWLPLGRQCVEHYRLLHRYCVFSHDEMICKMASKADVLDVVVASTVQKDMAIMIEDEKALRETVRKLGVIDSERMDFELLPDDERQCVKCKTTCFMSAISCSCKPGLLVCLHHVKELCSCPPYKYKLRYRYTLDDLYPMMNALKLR
pIC50: −log10 of the molar value.

In the examples that follow, each entry is paired with its recorded pIC50.
{"COMPOUND": "Fc1ccc(F)c(CCn2cnc(-c3cc(-c4nn[nH]c4C(F)(F)F)ccn3)c2)c1", "READOUT_LABEL": "pIC50", "ENDPOINT_VALUE": "≥ 7.00"}
{"COMPOUND": "Fc1ccccc1CCn1cnc(-c2cc(-c3nn[nH]c3C(F)(F)F)ccn2)c1", "READOUT_LABEL": "pIC50", "ENDPOINT_VALUE": "≥ 7.00"}
{"COMPOUND": "FC(F)(F)c1ccccc1CCn1cnc(-c2cc(-c3nn[nH]c3C(F)(F)F)ccn2)c1", "READOUT_LABEL": "pIC50", "ENDPOINT_VALUE": "≥ 7.00"}
{"COMPOUND": "Fc1ccc2c(c1)C(n1cnc(-c3cc(-c4nn[nH]c4C(F)(F)F)ccn3)c1)CC2 (centres unmarked)", "READOUT_LABEL": "pIC50", "ENDPOINT_VALUE": "≥ 7.00"}
{"COMPOUND": "Fc1ccccc1Cn1cnc(-c2cc(-c3nn[nH]c3C(F)(F)F)ccn2)c1", "READOUT_LABEL": "pIC50", "ENDPOINT_VALUE": "6.00 to 7.00"}

Please give pIC50 for each item listed below.
1. FC(F)(F)c1[nH]nnc1-c1ccnc(-c2cn(Cc3ccccc3)cn2)c1
2. COc1ccc(Cn2cnc(-c3cc(-c4nn[nH]c4C(F)(F)F)ccn3)c2)cc1
3. Cc1ccc(Cn2cnc(-c3cc(-c4nn[nH]c4C(F)(F)F)ccn3)c2)c(F)c1
4. Cc1ccc(CCn2cnc(-c3cc(-c4nn[nH]c4C(F)(F)F)ccn3)c2)cc1
5. COc1ccc2c(c1)CCCC2Cn1cnc(-c2cc(-c3nn[nH]c3C(F)(F)F)ccn2)c1 (centres unmarked)

a:
1: 6.00 to 7.00; 2: 6.00 to 7.00; 3: 6.00 to 7.00; 4: 6.00 to 7.00; 5: 6.00 to 7.00

Each compound below has a reported value. Please supply its pIC50.
1. Cc1ccccc1Cn1cnc(-c2cc(-c3nn[nH]c3C(F)(F)F)ccn2)c1
2. FC(F)(F)c1[nH]nnc1-c1ccnc(-c2cn(CCc3ccccc3Cl)cn2)c1
3. COc1cccc2c1C(Cn1cnc(-c3cc(-c4nn[nH]c4C(F)(F)F)ccn3)c1)CCC2 (centres unmarked)
4. Cn1cnc(-c2cc(-c3nn[nH]c3C(F)(F)F)ccn2)c1-c1ccc(F)cc1
5. Fc1ccc(Cn2cnc(-c3cc(-c4nn[nH]c4C(F)(F)F)ccn3)c2)cc1
6. Fc1cc(F)c(CCn2cnc(-c3cc(-c4nn[nH]c4C(F)(F)F)ccn3)c2)cc1F

a:
6.00 to 7.00
≥ 7.00
6.00 to 7.00
≥ 7.00
6.00 to 7.00
≥ 7.00

q: Kindly indicate its recorded pIC50. Item: CC(C)(C)c1ccc(CCn2cnc(-c3cc(-c4nn[nH]c4C(F)(F)F)ccn3)c2)cc1
a: 6.00 to 7.00
